Target Of Assay: norepinephrine transporter (NET) (Homo sapiens, UniProt P23975)
Construct: expressed in transfected cells; host or cells: HEK293
Sequence (P23975 whole entry, species assumed): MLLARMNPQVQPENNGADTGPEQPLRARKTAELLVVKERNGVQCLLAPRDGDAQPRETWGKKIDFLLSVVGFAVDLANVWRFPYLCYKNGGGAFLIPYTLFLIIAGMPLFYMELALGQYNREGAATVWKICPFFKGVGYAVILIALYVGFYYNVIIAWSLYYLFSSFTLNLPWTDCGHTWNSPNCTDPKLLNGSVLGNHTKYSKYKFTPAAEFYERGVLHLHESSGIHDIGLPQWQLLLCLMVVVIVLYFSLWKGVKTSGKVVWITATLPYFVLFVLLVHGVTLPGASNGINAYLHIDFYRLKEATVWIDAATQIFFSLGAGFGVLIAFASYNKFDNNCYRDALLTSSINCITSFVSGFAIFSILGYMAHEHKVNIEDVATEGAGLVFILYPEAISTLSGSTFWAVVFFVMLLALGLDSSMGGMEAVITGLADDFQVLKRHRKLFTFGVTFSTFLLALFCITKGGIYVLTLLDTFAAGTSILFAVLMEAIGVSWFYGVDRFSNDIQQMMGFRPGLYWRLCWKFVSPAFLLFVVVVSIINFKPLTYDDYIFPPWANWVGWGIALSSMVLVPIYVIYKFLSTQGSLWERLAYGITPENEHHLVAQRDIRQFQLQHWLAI
Experimental Protocol: Fluorescent substrate uptake inhibition, NET
Format: cell-based
Conditions Used: 10 μM, HEK293 cells expressing NET
Measure Name: inhibition at 10 µM (%)
Write it as a number; the unit % goes unstated.

Some solved entries appear below for comparison.
CNC1(c2ccc(C)cc2)CCCCC1=O (racemic) : 5
Cc1cccc(C2(N)CCCCC2=O)c1 (racemic) : 19.5

The compound identified as Cc1ccccc1[C@]1(N)CCCCC1=O [Compound 114R, (R)-2-amino-2-(o-tolyl)cyclohexan-1-one] registered its inhibition at 10 µM at 7.7

The compound identified as O=C1CCCC[C@]1(c1ccccc1)N1CCCCC1 [Compound 26R] registered its inhibition at 10 µM at 19.5
